target: human wild-type α-synuclein (full-length) (UniProt P37840 1-140); test: MST
pKd: −log10 of the molar value.

binder: SSEIHFKVKMTTHLKKLKESYCQRQ [SUMO1(31-55)]
pKd: 5.63
